Cited source for all entries: paper PMC3061052

# SYSTEM TESTED: NpmA (wild-type) (Escherichia coli, UniProt A8C927)
# Sequence (A8C927 1-219): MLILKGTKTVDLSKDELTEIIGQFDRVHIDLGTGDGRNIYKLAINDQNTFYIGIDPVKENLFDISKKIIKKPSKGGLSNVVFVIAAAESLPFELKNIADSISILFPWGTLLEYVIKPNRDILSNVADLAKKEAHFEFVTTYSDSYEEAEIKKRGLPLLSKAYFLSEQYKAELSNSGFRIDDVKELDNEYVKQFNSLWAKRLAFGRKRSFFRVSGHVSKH
# MEASUREMENT PROTOCOL: ITC titration of wild-type NpmA with cofactor
# TEST PARAMETERS: Kd for AdoMet, ITC, 20°C, no 30S subunit
OBSERVED PROPERTY: Kd (µM)
Give the value in µM but do not write µM after it.

What value of Kd on NpmA (wild-type) (Escherichia coli, UniProt A8C927) does C[S+](CC[C@H](N)C(=O)[O-])C[C@H]1O[C@@H](n2cnc3c(N)ncnc32)[C@H](O)[C@@H]1O (stereo partly shown) have?
18
